Numbers sourced from ChEMBL document CHEMBL2434899.

Experiment: Plasma concentration in Sprague-Dawley rat at 10 mg/kg, po after 4 hrs by LC-MS analysis
Type: ADME, organism-based
Design: dose 10 mg/kg, route oral

COMPOUND_STRUCTURE: CCCCC(=O)NC1CCN(c2ncnc3c2nc(-c2ccccc2Cl)n3-c2ccc(Cl)cc2)CC1
concentration at 4 h [ng/mL]: 1560

###

Target: Cannabinoid receptor 1 (Homo sapiens)
Sequence (P21554 whole entry): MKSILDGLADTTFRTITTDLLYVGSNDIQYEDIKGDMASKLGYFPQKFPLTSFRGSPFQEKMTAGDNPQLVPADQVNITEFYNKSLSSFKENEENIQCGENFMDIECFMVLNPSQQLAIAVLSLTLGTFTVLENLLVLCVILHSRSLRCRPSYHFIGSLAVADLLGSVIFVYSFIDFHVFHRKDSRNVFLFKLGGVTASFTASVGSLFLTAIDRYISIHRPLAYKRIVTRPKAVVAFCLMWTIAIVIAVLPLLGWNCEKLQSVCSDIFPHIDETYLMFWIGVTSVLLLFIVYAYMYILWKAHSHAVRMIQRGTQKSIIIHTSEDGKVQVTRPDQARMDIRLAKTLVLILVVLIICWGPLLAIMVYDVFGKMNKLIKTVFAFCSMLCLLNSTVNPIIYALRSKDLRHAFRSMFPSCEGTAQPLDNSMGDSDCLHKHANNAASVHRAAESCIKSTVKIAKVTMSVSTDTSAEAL
Test: Antagonist activity at human CB1 receptor expressed in CHO-K1 cells by intracellular Ca2+ mobilization assay in presence of CP55940
Format: functional, cell-based
Property: Ke; scope: individual molecules

COMPOUND_STRUCTURE: O=C(CCN1CCCCC1)NC1CCN(c2ncnc3c2nc(-c2ccccc2Cl)n3-c2ccc(Cl)cc2)CC1
Ke [nM]: 789
//
COMPOUND_STRUCTURE: O=C(NC1CCN(c2ncnc3c2nc(-c2ccccc2Cl)n3-c2ccc(Cl)cc2)CC1)C1CCCCC1
Ke [nM]: 3.3
//
COMPOUND_STRUCTURE: CN(C)CC(=O)NC1CCN(c2ncnc3c2nc(-c2ccccc2Cl)n3-c2ccc(Cl)cc2)CC1
Ke [nM]: 140
//
COMPOUND_STRUCTURE: CCCCC(=O)NC1CCN(c2ncnc3c2nc(-c2ccccc2Cl)n3-c2ccc(Cl)cc2)CC1
Ke [nM]: 4.9

###

Experiment: Plasma concentration in Sprague-Dawley rat at 10 mg/kg, po after 8 hrs by LC-MS analysis
Assay type: ADME, organism-based
Set-up: dose 10 mg/kg, route oral

COMPOUND_STRUCTURE: CCCCC(=O)NC1CCN(c2ncnc3c2nc(-c2ccccc2Cl)n3-c2ccc(Cl)cc2)CC1
concentration at 8 h [ng/mL]: 1960

###

Target: Cannabinoid receptor 1 (Homo sapiens)
Assay: Displacement of [3H]CP55940 from human CB1 receptor expressed in CHO-K1 cells
Type: cell-based
pKi: −log10 of the molar value.

COMPOUND_STRUCTURE: O=C(NC1CCN(c2ncnc3c2nc(-c2ccccc2Cl)n3-c2ccc(Cl)cc2)CC1)C1CCCC1
pKi: 8.81
--
COMPOUND_STRUCTURE: CCOC(=O)NC1CCN(c2ncnc3c2nc(-c2ccccc2Cl)n3-c2ccc(Cl)cc2)CC1
pKi: 8.45
--
COMPOUND_STRUCTURE: O=C(NC1CCN(c2ncnc3c2nc(-c2ccccc2Cl)n3-c2ccc(Cl)cc2)CC1)C1CCCCC1
pKi: 8.47
--
COMPOUND_STRUCTURE: O=C(CC1CCCC1)NC1CCN(c2ncnc3c2nc(-c2ccccc2Cl)n3-c2ccc(Cl)cc2)CC1
pKi: 8.69
--
COMPOUND_STRUCTURE: O=S(=O)(NC1CCN(c2ncnc3c2nc(-c2ccccc2Cl)n3-c2ccc(Cl)cc2)CC1)C(F)(F)F
pKi: 8.21
--
COMPOUND_STRUCTURE: O=C(NC1CCN(c2ncnc3c2nc(-c2ccccc2Cl)n3-c2ccc(Cl)cc2)CC1)Oc1ccccc1
pKi: 8.59
--
COMPOUND_STRUCTURE: O=C(CC1CCCCC1)NC1CCN(c2ncnc3c2nc(-c2ccccc2Cl)n3-c2ccc(Cl)cc2)CC1
pKi: 8.71

###

Assay: Drug uptake in brain of Sprague-Dawley rat at 10 mg/kg, po after 4 hrs by LC-MS analysis
Type: ADME, organism-based
Parameters: dose 10 mg/kg, route oral
Conditions: read-out: Drug uptake
VALUE_TYPE: concentration at 4 h (ng/mL)

COMPOUND_STRUCTURE: CCCCC(=O)NC1CCN(c2ncnc3c2nc(-c2ccccc2Cl)n3-c2ccc(Cl)cc2)CC1
VALUE_TYPE: concentration at 4 h
ASSAY_VALUE: 103

###

Experiment: Plasma concentration in Sprague-Dawley rat at 10 mg/kg, po after 2 hrs by LC-MS analysis
Format: ADME, organism-based
Set-up: dose 10 mg/kg, route oral
VALUE_TYPE: concentration at 2 h

COMPOUND_STRUCTURE: CCCCC(=O)NC1CCN(c2ncnc3c2nc(-c2ccccc2Cl)n3-c2ccc(Cl)cc2)CC1
VALUE_TYPE: concentration at 2 h
ASSAY_VALUE: 1750 ng/mL

###

Biological target: Cannabinoid receptor 2 (Homo sapiens, UniProt P34972)
Sequence (P34972 whole entry): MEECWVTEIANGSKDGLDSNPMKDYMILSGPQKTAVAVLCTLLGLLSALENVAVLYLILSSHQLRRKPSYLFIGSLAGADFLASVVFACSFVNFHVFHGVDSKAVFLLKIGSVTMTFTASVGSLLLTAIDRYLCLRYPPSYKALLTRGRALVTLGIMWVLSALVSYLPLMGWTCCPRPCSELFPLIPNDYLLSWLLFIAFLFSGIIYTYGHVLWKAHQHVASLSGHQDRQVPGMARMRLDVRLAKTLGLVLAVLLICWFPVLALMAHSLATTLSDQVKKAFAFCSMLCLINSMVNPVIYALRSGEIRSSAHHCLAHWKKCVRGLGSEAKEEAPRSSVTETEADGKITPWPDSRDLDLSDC
pKi: −log10 of the molar value.
Let's look at some compounds and their measured pKi.
VALUE_TYPE: pKi

COMPOUND_STRUCTURE: CC(C)CC(=O)NC1CCN(c2ncnc3c2nc(-c2ccccc2Cl)n3-c2ccc(Cl)cc2)CC1
ASSAYED_TARGET: Cannabinoid receptor 2 (Homo sapiens, UniProt P34972)
ASSAY_VALUE: 7.05
--
COMPOUND_STRUCTURE: O=S(=O)(NC1CCN(c2ncnc3c2nc(-c2ccccc2Cl)n3-c2ccc(Cl)cc2)CC1)C(F)(F)F
ASSAYED_TARGET: Cannabinoid receptor 2 (Homo sapiens, UniProt P34972)
ASSAY_VALUE: 5.35
--
COMPOUND_STRUCTURE: O=C(CC1CCCCC1)NC1CCN(c2ncnc3c2nc(-c2ccccc2Cl)n3-c2ccc(Cl)cc2)CC1
ASSAYED_TARGET: Cannabinoid receptor 2 (Homo sapiens, UniProt P34972)
ASSAY_VALUE: 5.63
--
COMPOUND_STRUCTURE: O=C(NC1CCN(c2ncnc3c2nc(-c2ccccc2Cl)n3-c2ccc(Cl)cc2)CC1)Oc1ccccc1
ASSAYED_TARGET: Cannabinoid receptor 2 (Homo sapiens, UniProt P34972)
ASSAY_VALUE: 4.97
--
COMPOUND_STRUCTURE: CCCCC(=O)NC1CCN(c2ncnc3c2nc(-c2ccccc2Cl)n3-c2ccc(Cl)cc2)CC1
ASSAYED_TARGET: Cannabinoid receptor 2 (Homo sapiens, UniProt P34972)
ASSAY_VALUE: 5.98
--
COMPOUND_STRUCTURE: O=C(NC1CCN(c2ncnc3c2nc(-c2ccccc2Cl)n3-c2ccc(Cl)cc2)CC1)C1CCCCC1
ASSAYED_TARGET: Cannabinoid receptor 2 (Homo sapiens, UniProt P34972)
ASSAY_VALUE: 6.08

###

Molecular target: UniProt:P21554
Assay: Antagonist activity at human CB1 receptor expressed in CHO-K1 cells by intracellular Ca2+ mobilization assay in presence of CP55940
Type: functional, cell-based
VALUE_TYPE: Ke (nM)

COMPOUND_STRUCTURE: COC(=O)NC1CCN(c2ncnc3c2nc(-c2ccccc2Cl)n3-c2ccc(Cl)cc2)CC1
VALUE_TYPE: Ke
UNIT_DESCRIPTOR: nM
ASSAY_VALUE: 17

COMPOUND_STRUCTURE: O=C(CC1CCCCC1)NC1CCN(c2ncnc3c2nc(-c2ccccc2Cl)n3-c2ccc(Cl)cc2)CC1
VALUE_TYPE: Ke
UNIT_DESCRIPTOR: nM
ASSAY_VALUE: 2.1

COMPOUND_STRUCTURE: O=C(CC1CCCC1)NC1CCN(c2ncnc3c2nc(-c2ccccc2Cl)n3-c2ccc(Cl)cc2)CC1
VALUE_TYPE: Ke
UNIT_DESCRIPTOR: nM
ASSAY_VALUE: 2.9

COMPOUND_STRUCTURE: CC(C)CCC(=O)NC1CCN(c2ncnc3c2nc(-c2ccccc2Cl)n3-c2ccc(Cl)cc2)CC1
VALUE_TYPE: Ke
UNIT_DESCRIPTOR: nM
ASSAY_VALUE: 7.4

COMPOUND_STRUCTURE: O=C(NC1CCN(c2ncnc3c2nc(-c2ccccc2Cl)n3-c2ccc(Cl)cc2)CC1)C1CCCC1
VALUE_TYPE: Ke
UNIT_DESCRIPTOR: nM
ASSAY_VALUE: 0.89

COMPOUND_STRUCTURE: CC(C)CC(=O)NC1CCN(c2ncnc3c2nc(-c2ccccc2Cl)n3-c2ccc(Cl)cc2)CC1
VALUE_TYPE: Ke
UNIT_DESCRIPTOR: nM
ASSAY_VALUE: 5.4

COMPOUND_STRUCTURE: CCOC(=O)NC1CCN(c2ncnc3c2nc(-c2ccccc2Cl)n3-c2ccc(Cl)cc2)CC1
VALUE_TYPE: Ke
UNIT_DESCRIPTOR: nM
ASSAY_VALUE: 2.3

COMPOUND_STRUCTURE: NS(=O)(=O)NC1CCN(c2ncnc3c2nc(-c2ccccc2Cl)n3-c2ccc(Cl)cc2)CC1
VALUE_TYPE: Ke
UNIT_DESCRIPTOR: nM
ASSAY_VALUE: 2770

COMPOUND_STRUCTURE: O=S(=O)(NC1CCN(c2ncnc3c2nc(-c2ccccc2Cl)n3-c2ccc(Cl)cc2)CC1)C(F)(F)F
VALUE_TYPE: Ke
UNIT_DESCRIPTOR: nM
ASSAY_VALUE: 1.05

###

Assay: Drug uptake in brain of Sprague-Dawley rat at 10 mg/kg, po after 1 hr by LC-MS analysis
Type: ADME, organism-based
Parameters: dose 10 mg/kg, route oral
Conditions: read-out: Drug uptake
VALUE_TYPE: concentration at 1 h

COMPOUND_STRUCTURE: CCCCC(=O)NC1CCN(c2ncnc3c2nc(-c2ccccc2Cl)n3-c2ccc(Cl)cc2)CC1
ASSAY_VALUE: 24.3 ng/mL
